Values compiled from patent US5122448A.

- Test system: anti-EBNA antibodies
- Experimental details: ELISA with polypeptide as solid phase antigen, anti-polypeptide activity of sera (OD405)
- Assay type: binding, human
- Conditions: serum 1:20; MV post-mononucleosis
Residues, ends and D or L forms follow the SMILES beside them.
Endpoint: OD405 × 10^3 obtained with Patient Antibodies to peptide (OD405 × 10^3)
Answer with a number only, understood to be in OD405 × 10^3.

Study these solved cases before continuing.
Molecule	Target under test	Endpoint value
C[C@H](N)C(=O)NCC(=O)N[C@@H](C)C(=O)NCC(=O)NCC(=O)NCC(=O)N[C@@H](C)C(=O)NCC(=O)NCC(=O)N[C@@H](C)C(=O)NCC(=O)N[C@@H](C)C(=O)NCC(=O)NCC(=O)NCC(=O)N[C@@H](C)C(=O)NCC(=O)NCC(=O)N[C@@H](C)C(=O)NCC(=O)O [Polypeptide P62] (H-AGAGGGAGGAGAGGGAGGAG-OH)	anti-EBNA antibodies	631
CSCC[C@H](NC(=O)[C@@H]1CCCN1C(=O)[C@H](CCCNC(=N)N)NC(=O)[C@H](CCCCN)NC(=O)[C@H](CCC(=O)O)NC(=O)CNC(=O)[C@H](CCCNC(=N)N)NC(=O)CNC(=O)[C@H](CCCNC(=N)N)NC(=O)CNC(=O)[C@H](CCCNC(=N)N)NC(=O)CNC(=O)[C@H](CCCNC(=N)N)NC(=O)[C@H](C)NC(=O)[C@@H](N)CCCNC(=N)N)C(=O)O [Polypeptide P89] (H-RARGRGRGRGEKRPM-OH)	anti-EBNA antibodies	25

// sample C[C@H](NC(=O)CNC(=O)CNC(=O)[C@H](C)NC(=O)CNC(=O)[C@H](C)NC(=O)CNC(=O)CNC(=O)CN)C(=O)NCC(=O)N[C@@H](C)C(=O)NCC(=O)NCC(=O)NCC(=O)NCC(=O)N[C@@H](CCCNC(=N)N)C(=O)O [Polypeptide P60] (H-GGGAGAGGAGAGGGGR-OH) , its OD405 × 10^3 obtained with Patient Antibodies to peptide was 162

// sample C[C@H](NC(=O)CNC(=O)CNC(=O)[C@H](C)NC(=O)CNC(=O)[C@H](C)NC(=O)CNC(=O)[C@H](C)NC(=O)CNC(=O)[C@@H](NC(=O)CNC(=O)CNC(=O)[C@H](Cc1c[nH]cn1)NC(=O)[C@@H](NC(=O)CNC(=O)[C@@H](N)CCCCN)[C@@H](C)O)[C@@H](C)O)C(=O)NCC(=O)N[C@@H](C)C(=O)NCC(=O)O [Polypeptide P27] (H-KGTHGGTGAGAGAGGAGAG-OH) , its OD405 × 10^3 obtained with Patient Antibodies to peptide was 107
